Reported IC90 values are given for each entry in this list.
- target.desc: APOL1 G1 (Homo sapiens, UniProt O14791, I384M/S342G)
- Sequence (O14791 28-398 S342G/I384M): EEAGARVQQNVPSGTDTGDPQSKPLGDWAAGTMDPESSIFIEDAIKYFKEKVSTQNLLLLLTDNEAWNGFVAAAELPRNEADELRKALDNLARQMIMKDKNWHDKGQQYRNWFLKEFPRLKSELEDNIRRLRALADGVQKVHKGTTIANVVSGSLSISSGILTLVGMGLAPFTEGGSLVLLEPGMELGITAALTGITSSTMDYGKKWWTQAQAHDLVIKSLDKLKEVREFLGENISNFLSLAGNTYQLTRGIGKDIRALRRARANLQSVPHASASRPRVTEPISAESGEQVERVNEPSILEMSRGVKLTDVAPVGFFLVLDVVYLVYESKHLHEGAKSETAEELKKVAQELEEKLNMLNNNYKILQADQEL
- protocol.notes: MultiTox-Fluor Multiplex Cytotoxicity Assay, tet-inducible APOL1 G1 T-REx-HEK293 cells
- Format: cell-based
- Parameters: expressed in transfected cells; host or cells: T-REx HEK293, clone G1 DC3.25 (pAAVS1-Puro-APOL1 G1)
- run.conditions: HEK293, Multi-Tox Assay; APOL1 variant (G0/G1/G2) of the HEK293 cells not given; read-out: Multi-Tox Assay IC90

Example cases with answers are listed next.
| compound | observed.result |
| --- | --- |
| C[C@H]1C[C@@]2(C[C@@H](c3cccc(NS(C)(=O)=O)c3)N1)OCCc1cc(Cl)sc12 (racemic) | 50 to 500 nM |
| Cc1cc([C@@H]2C[C@]3(C[C@H](C)N2)OCCc2cc(Cl)sc23)ccn1 (racemic) | < 50 nM |

Now turn to the next compound.
Query string: Requested read-out: IC90. Entry: CC(C)C(=O)NCCn1cc([C@@H]2C[C@]3(C[C@H](C)N2)OC[C@@H](O)c2cc(Cl)sc23)nn1
Result string: > 500 nM
